# literature pull: 3',5'-cyclic-AMP phosphodiesterase 4D (Homo sapiens) log10(IC50)
Use the decimal logarithm of IC50 (nM).

// known answers, use as guide
Cc1nc(N)c2nnn(C3CCCCC3)c2n1: 2.73
COc1ccc([C@@H]2CN(C(=O)[C@@H](O)CO)C[C@@]2(C)[C@@H](C)O)cc1OC1CN(c2ccc(OC(C)C)cn2)C1: 0.49

Q: Given CCCCn1c(=O)c2nnc(C3(C4CC4)CC3)n2c2ncc(C)cc21 , state its recorded log10(IC50).
Ans: 3.20

Q: Consider next the compound O=c1c2nnc(C3(C4CC4)CC3)n2c2c(n1CC1CC1)CCCCC2 in the same way.
Ans: 4.08

Q: What would you report for COc1ccc([C@@H]2CN(C(=O)[C@@H](O)CO)C[C@@]2(C)[C@@H](C)O)cc1OC1CN(c2ncc(Cl)cc2F)C1 ?
Ans: 0.67

Q: Next compound up: COc1ccc([C@@H]2CN(C(=O)[C@@H](O)CO)C[C@@]2(C)[C@@H](C)O)cc1OC1CN(c2ncc(C)cc2C#N)C1
Ans: 0.13

Q: What about this compound? CCC(Cn1c(=O)c2nnc(C3(C4CC4)CC3)n2c2ncccc21)OC (racemic)
Ans: 4.53

Q: Now the same for CNc1nc(-c2cccc(C#Cc3ccccc3)c2)c2cc(OC)c(OC)cc2n1
Ans: 0.40

###

The following compounds were reported with IC50 values on 3',5'-cyclic-AMP phosphodiesterase 4D (Homo sapiens) in different studies.
Answer in µM, number only, no unit symbol.

Nc1nccn2c(C3CCc4[nH]ncc4C3)nnc12 (stereo not drawn): 4.77
CC1(C)CCCN(c2nnc3c(N)ncc(C4CC4)n23)C1: 2.19
CC1CCC(F)(F)CC1c1nnc2c(N)ncnn12 (single isomer, unassigned): 2.3
Nc1ncnc2c1ncn2C1CCCCC1: 3.42
COc1ccc([C@@H]2CN(C(=O)[C@@H](O)CO)C[C@@]2(C)[C@@H](C)O)cc1OC1CN(c2ccc(C)c(C)n2)C1: 0.00394

Q: Which value of IC50 has been reported for Nc1nccn2c(N3CCCC4(CC4)C3)nnc12 in the records?
Ans: 7.85

Q: Quick one: CNc1nc(-c2cccc(NC(=O)c3ccc(N(C)C)nc3)c2)c2cc(OC)c(OC)cc2n1
Ans: 0.0026

Q: What do we get for CC1CCC(C(F)(F)F)CC1c1nnc2c(N)nccn12 (single isomer, unassigned) ?
Ans: 6

###

Compiled notes: published pIC50 values involving 3',5'-cyclic-AMP phosphodiesterase 4D (Homo sapiens).
When answering, recall that pIC50 equals minus log10 of the concentration in mol/L, and write that number alone.

Example compounds with recorded pIC50:
Nc1nccn2c(C3CCCC3)nnc12: 5.26
CCCCn1c(=O)c2nnc(C3(C4CC4)CC3)n2c2ncc(CC)cc21: 6.17
CNc1nc(-c2cccc(NC(=O)c3ccc(OC)c(OC4CCCC4)c3)c2)c2cc(OC)c(OC)cc2n1: 8.38

Q: Request the reported pIC50 associated with O=c1c2nnc(C3(C4CC4)CC3)n2c2c(n1CC1CC1)COCC2
Ans: 4.41

Q: Also CCOc1cc2nc(NC)nc(-c3cccc(-c4cnc5ccccc5c4)c3)c2cc1OCC , if possible.
Ans: 9.66

Q: Likewise for CNc1nc(-c2cccc(-c3cncc(SC)c3)c2)c2cc(OC)c(OC)cc2n1 ?
Ans: 8.55

Q: Next up: Nc1ncnc2c1nnn2C1CCCCC1F (single isomer, unassigned)
Ans: 5.16

Q: Also check CCOc1ccc(-c2nc(CCC(=O)c3ccccc3OCC)cs2)cc1OCC
Ans: 8.64

Q: C[C@@H]1CCC[C@H](c2nnc3c(N)nccn23)C1 ?
Ans: 5.82
